measured.on: IP-3 receptor (Rattus norvegicus, UniProt P29994)
Construct: from tissue; host or cells: rat cerebellum (microsomal membrane preparation)
Sequence (P29994 whole entry): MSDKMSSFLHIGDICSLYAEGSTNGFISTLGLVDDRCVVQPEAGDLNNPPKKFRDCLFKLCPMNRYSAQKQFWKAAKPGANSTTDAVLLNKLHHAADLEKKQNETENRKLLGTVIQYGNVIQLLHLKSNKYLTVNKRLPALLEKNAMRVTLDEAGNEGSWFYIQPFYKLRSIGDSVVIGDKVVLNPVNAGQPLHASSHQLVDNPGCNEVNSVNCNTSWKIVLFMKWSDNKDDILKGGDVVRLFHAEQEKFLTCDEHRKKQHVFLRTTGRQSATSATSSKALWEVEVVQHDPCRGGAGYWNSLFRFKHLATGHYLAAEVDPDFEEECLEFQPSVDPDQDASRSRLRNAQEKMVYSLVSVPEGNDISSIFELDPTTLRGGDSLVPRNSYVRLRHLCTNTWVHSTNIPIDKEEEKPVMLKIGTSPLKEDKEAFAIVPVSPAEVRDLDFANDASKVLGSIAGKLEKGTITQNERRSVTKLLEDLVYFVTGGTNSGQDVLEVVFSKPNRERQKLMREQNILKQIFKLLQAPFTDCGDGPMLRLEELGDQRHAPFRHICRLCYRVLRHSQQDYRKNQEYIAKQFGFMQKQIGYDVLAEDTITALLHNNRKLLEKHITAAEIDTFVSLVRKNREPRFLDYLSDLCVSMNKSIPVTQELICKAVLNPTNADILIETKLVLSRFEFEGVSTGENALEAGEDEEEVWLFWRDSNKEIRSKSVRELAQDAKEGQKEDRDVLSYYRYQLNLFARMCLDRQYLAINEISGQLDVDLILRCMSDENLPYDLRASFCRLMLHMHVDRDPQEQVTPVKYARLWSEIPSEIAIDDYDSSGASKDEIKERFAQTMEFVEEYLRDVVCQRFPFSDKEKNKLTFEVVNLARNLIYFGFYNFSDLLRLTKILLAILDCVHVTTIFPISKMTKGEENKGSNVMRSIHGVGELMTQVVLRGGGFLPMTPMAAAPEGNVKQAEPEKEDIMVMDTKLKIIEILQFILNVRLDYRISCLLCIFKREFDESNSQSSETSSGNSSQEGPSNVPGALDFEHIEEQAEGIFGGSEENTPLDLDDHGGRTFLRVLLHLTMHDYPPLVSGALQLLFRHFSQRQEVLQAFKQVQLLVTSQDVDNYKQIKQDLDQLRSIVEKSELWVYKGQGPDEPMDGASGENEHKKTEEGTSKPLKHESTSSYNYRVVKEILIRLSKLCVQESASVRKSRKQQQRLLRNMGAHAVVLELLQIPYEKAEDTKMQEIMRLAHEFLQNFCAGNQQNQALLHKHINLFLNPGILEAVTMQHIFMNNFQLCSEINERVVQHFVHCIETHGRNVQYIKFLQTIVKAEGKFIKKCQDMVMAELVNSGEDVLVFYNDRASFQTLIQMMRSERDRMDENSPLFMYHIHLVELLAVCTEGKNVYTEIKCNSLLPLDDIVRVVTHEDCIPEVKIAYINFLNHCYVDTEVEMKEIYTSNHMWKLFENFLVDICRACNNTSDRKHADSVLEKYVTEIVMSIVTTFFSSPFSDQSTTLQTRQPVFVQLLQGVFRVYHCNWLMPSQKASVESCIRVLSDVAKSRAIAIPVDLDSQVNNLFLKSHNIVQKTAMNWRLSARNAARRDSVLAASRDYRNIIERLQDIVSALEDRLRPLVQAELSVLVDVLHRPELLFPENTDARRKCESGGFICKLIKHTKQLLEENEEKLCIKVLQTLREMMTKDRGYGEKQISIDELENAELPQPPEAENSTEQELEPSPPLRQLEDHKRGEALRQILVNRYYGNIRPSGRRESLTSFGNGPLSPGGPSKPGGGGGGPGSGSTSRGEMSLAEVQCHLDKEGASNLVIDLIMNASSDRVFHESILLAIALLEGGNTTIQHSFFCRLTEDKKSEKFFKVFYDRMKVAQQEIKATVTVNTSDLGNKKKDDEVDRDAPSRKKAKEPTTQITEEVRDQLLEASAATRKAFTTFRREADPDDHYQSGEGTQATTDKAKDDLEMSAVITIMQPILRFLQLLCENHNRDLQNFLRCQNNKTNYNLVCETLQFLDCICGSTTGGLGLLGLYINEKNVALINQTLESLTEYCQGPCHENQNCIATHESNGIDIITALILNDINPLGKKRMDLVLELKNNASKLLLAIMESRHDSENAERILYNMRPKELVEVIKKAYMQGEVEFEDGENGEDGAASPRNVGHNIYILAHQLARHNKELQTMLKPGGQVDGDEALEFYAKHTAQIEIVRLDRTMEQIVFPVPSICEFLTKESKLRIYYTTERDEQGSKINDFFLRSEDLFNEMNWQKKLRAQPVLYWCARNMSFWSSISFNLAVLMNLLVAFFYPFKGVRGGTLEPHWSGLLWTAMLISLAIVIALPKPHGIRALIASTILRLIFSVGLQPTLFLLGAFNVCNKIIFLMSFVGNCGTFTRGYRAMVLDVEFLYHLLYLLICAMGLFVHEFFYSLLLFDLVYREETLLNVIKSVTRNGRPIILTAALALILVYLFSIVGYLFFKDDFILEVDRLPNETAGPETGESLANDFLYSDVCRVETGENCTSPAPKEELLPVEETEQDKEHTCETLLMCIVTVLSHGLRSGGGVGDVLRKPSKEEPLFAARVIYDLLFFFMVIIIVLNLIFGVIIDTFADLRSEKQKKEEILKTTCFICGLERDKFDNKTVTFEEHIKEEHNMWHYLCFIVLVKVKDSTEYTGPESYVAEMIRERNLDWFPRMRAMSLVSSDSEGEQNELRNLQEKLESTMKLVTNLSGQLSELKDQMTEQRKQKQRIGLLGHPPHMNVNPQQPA
assay.procedure: IP-3 receptor antagonistic effect: inhibition of IP3 binding in rat cerebellum membrane preparations (Model 5)
test.parameters: read-out: Average IC50
Where a name gives a salt, the structure may show the parent alone.
observed.property: IC50 (µM)

Here is how some molecules turned out for IC50.
molecule	unit.spec	IC50
O=S(=O)(O)OC[C@H]1O[C@@H](OC[C@H]2O[C@H](CO[C@@H]3O[C@H](COS(=O)(=O)O)[C@@H](OS(=O)(=O)O)[C@H](OS(=O)(=O)O)[C@H]3OS(=O)(=O)O)[C@@H](OS(=O)(=O)O)[C@@H]2O[C@@H]2O[C@H](COS(=O)(=O)O)[C@@H](OS(=O)(=O)O)[C@H](OS(=O)(=O)O)[C@H]2OS(=O)(=O)O)[C@H](OS(=O)(=O)O)[C@@H](OS(=O)(=O)O)[C@@H]1OS(=O)(=O)O [Example 10, potassium salt]	µM	0.137
O=S(=O)(O)OC[C@H]1O[C@@H](OC[C@H]2O[C@@H](O[C@H]3[C@H](OS(=O)(=O)O)[C@@H](COS(=O)(=O)O)O[C@@H]3COS(=O)(=O)O)[C@H](OS(=O)(=O)O)[C@@H](OS(=O)(=O)O)[C@@H]2OS(=O)(=O)O)[C@H](OS(=O)(=O)O)[C@@H](OS(=O)(=O)O)[C@@H]1OS(=O)(=O)O [Example 7, potassium salt]	µM	0.24

A. O=S(=O)(O)OC[C@H]1O[C@H](COS(=O)(=O)O)[C@@H](OS(=O)(=O)O)[C@@H]1O[C@H]1OC[C@@H](OS(=O)(=O)O)[C@@H](OS(=O)(=O)O)[C@@H]1OS(=O)(=O)O [Example 5, potassium salt]
B. O=S(=O)(O)OCC1OC(COS(=O)(=O)O)C(OS(=O)(=O)O)C1OC1OC(COS(=O)(=O)O)C(OS(=O)(=O)O)C(OS(=O)(=O)O)C1OS(=O)(=O)O (stereo not shown) [Example 1, sodium salt]
*Q* // pick min by IC50: A , B Response format: the label of the selected entry.
*A* B
(B: 1.49 µM, A: 26.5 µM)

###

measured.on: IP-3 receptor (Rattus norvegicus)
Construct: from tissue; host or cells: rat cerebellum (microsomal membrane preparation)
assay.procedure: IP-3 receptor antagonistic effect: inhibition of IP3 binding in rat cerebellum membrane preparations (Model 5)
test.parameters: read-out: IC50 (μg/ml) Average ± SEM (n) (converted)
Where a name gives a salt, the structure may show the parent alone.
observed.property: IC50 (nM)

molecule	reported.measurement
O=S(=O)(O)OC[C@H]1O[C@@H](OC[C@H]2O[C@@H](O[C@H]3[C@H](OS(=O)(=O)O)[C@@H](COS(=O)(=O)O)O[C@@H]3COS(=O)(=O)O)[C@H](OS(=O)(=O)O)[C@@H](OS(=O)(=O)O)[C@@H]2OS(=O)(=O)O)[C@H](OS(=O)(=O)O)[C@@H](OS(=O)(=O)O)[C@@H]1OS(=O)(=O)O [Example 7, potassium salt]	310
O=S(=O)(O)OC[C@H]1O[C@H](COS(=O)(=O)O)[C@@H](OS(=O)(=O)O)[C@@H]1O[C@H]1OC[C@@H](OS(=O)(=O)O)[C@@H](OS(=O)(=O)O)[C@@H]1OS(=O)(=O)O [Example 5, potassium salt]	34300
O=S(=O)(O)OC[C@H]1O[C@H](COS(=O)(=O)O)[C@@H](OS(=O)(=O)O)[C@@H]1O[C@@H]1OC[C@H](OS(=O)(=O)O)[C@H](OS(=O)(=O)O)[C@H]1OS(=O)(=O)O [Example 4, potassium salt]	26300
O=S(=O)(O)OC[C@H]1O[C@@H](OC[C@H]2O[C@H](CO[C@@H]3O[C@H](COS(=O)(=O)O)[C@@H](OS(=O)(=O)O)[C@H](OS(=O)(=O)O)[C@H]3OS(=O)(=O)O)[C@@H](OS(=O)(=O)O)[C@@H]2O[C@@H]2O[C@H](COS(=O)(=O)O)[C@@H](OS(=O)(=O)O)[C@H](OS(=O)(=O)O)[C@H]2OS(=O)(=O)O)[C@H](OS(=O)(=O)O)[C@@H](OS(=O)(=O)O)[C@@H]1OS(=O)(=O)O [Example 10, potassium salt]	177
O=S(=O)(O)OCC1OC(OCC2OC(OCC3OC(COC4OC(COC5OC(COS(=O)(=O)O)C(OS(=O)(=O)O)C(OS(=O)(=O)O)C5OS(=O)(=O)O)C(OS(=O)(=O)O)C(OS(=O)(=O)O)C4OS(=O)(=O)O)C(OS(=O)(=O)O)C3OS(=O)(=O)O)C(OS(=O)(=O)O)C(OS(=O)(=O)O)C2OS(=O)(=O)O)C(OS(=O)(=O)O)C(OS(=O)(=O)O)C1OS(=O)(=O)O (stereo not drawn) [Example 9, potassium salt]	148
O=S(=O)(O)OC[C@H]1O[C@@H](O[C@H]2[C@H](OS(=O)(=O)O)[C@@H](COS(=O)(=O)O)O[C@@H]2COS(=O)(=O)O)[C@H](OS(=O)(=O)O)[C@@H](OS(=O)(=O)O)[C@@H]1OS(=O)(=O)O [Example 3, sodium salt]	1210

P. O=S(=O)(O)OCC1OC(COS(=O)(=O)O)C(OS(=O)(=O)O)C1OC1OC(COS(=O)(=O)O)C(OS(=O)(=O)O)C(OS(=O)(=O)O)C1OS(=O)(=O)O (stereo not drawn) [Example 2, potassium salt]
Q. O=S(=O)(O)OCC1OC(COS(=O)(=O)O)C(OS(=O)(=O)O)C1OC1OC(COS(=O)(=O)O)C(OS(=O)(=O)O)C(OS(=O)(=O)O)C1OS(=O)(=O)O (stereo not drawn) [Example 1, sodium salt]
*Q* // pick min by IC50: P , Q Response format: the label of the selected entry.
*A* Q
(Q: 1750 nM, P: 5650 nM)

// provenance: patent US20080249165A1
